Test Summary: High-throughput drug toxicity screening in the BPDCN cell line Gen2.2 (AID 1224824);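 also: cells exposed to compounds for 48 h before reading; 100% = DMSO and 0% = bortezomib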
Run Conditions: Gen2.2 BPDCN cells; at 45.8 µM (top of the series) unless noted
So basically, if cell viability, % of control (lower = more cytotoxic) comes in under 10% it's satisfied, and if it's 10% or more it's not satisfied.

COc1ccc(CC2SC(=O)NC2=O)cc1C(=O)NCc1ccc(C(F)(F)F)cc1 (stereo not drawn)	not satisfied
Fc1cc(-c2cccc3ncc(-c4cnn(C5CCNCC5)c4)nc23)cc(F)c1CN1CCOCC1	satisfied

--- query ---
Q. Item Nc1ncnc2c1c(-c1cccc(OCc3ccccc3)c1)cn2C1CC(CN2CCCC2)C1 (stereo not drawn) : cell viability, % of control (lower = more cytotoxic) beneath 10%, strictly?
A. satisfied

====

System: CP194
Test Summary: qHTS profiling for inhibitors of Plasmodium falciparum proliferation (AID 504749); also: nearly all actives have a fitted effect of over 60% in size
Run Conditions: P. falciparum in erythrocytes, SYBR Green DNA, 72 h; series mostly up to 28.7 µM
Inconclusive results are not listed. Calls of active or inactive are those of the source. Calls follow the shape of the dose curve; as a rule, active = well fitted inhibition curve with a large enough effect; inconclusive = small, poorly fitted or top-dose-only effect; inactive = flat fitted curve, though single readings scatter.
Form entry, call: pick from label 1 for active, label 0 for inactive

Nc1ccn([C@@H]2O[C@H](CO)[C@H](O)C2(F)F)c(=O)n1	label 1
CC[C@H]1CN2CCc3cc(OC)c(OC)cc3[C@H]2C[C@@H]1C[C@@H]1NCCc2cc(OC)c(OC)cc21	label 1
CC(C)(C)NC(=O)[C@H]1CN(Cc2cccnc2)CCN1C[C@@H](O)C[C@@H](Cc1ccccc1)C(=O)N[C@H]1c2ccccc2C[C@H]1O	label 1
CC=CC1=C(C(=O)O)N2C(=O)[C@H](NC(=O)[C@H](N)c3ccc(O)cc3)[C@@H]2SC1	label 0
Nc1ccn([C@@H]2CS[C@H](CO)O2)c(=O)n1	label 0
CN1c2cc(O)c(N=NC(N)=O)cc2CC1S(=O)(=O)O (stereo not drawn)	label 0

Q. Just curious, what result did COc1c(N2C[C@@H]3CCCN[C@H]3C2)c(F)cc2c(=O)c(C(=O)O)cn(C3CC3)c12 get here?
A. label 0

Q. Thanks! And C[C@H]1C[C@@H]2[C@@H]([C@@H](O)C[C@@]3(C)[C@H]2CC[C@]3(O)C(=O)CO)[C@@]2(C)C=CC(=O)C=C12 ?
A. label 0

====

Test Summary: qHTS of pediatric cancer cell lines to identify multiple opportunities for drug repurposing: Confirmatory screen for SJ-GBM2 cells (AID 1347116);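 also: potency is read from the fitted curve at half-maximal effect; 48 hour compound exposure; nearly all actives have a fitted effect of over 60% in size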
Run Conditions: SJ-GBM2 glioblastoma cells, viability; series mostly up to 45.9 µM
Experimental: Drug repurposing or repositioning has been offered as a strategy for drug development in oncology programs. […] [1] Shen, M et al. Quantitative high-throughput phenotypic screening of pediatric cancer cell lines identifies multiple opportunities for drug repurposing. […] Cells were assayed in growth media at a density of 500-1,000 cells/well. […] After a 15 min incubation at room temperature, samples were analyzed for luminescence intensity using a ViewLux High-throughput CCD imager equipped with clear filters.
Inconclusive results are not listed. Calls of active or inactive are those of the source. The call rests on the fitted dose curve; in most records, active means well fitted cell-killing curve with a large enough effect; inconclusive means small, poorly fitted or top-dose-only effect, or effect the other way; inactive means no such curve, though single readings can be large or run the other way.
Form entry, call: pick from yes (1) (active), no (0) (inactive)

CC(C)(C)c1cc(NC(=O)Nc2ccc(-c3cn4c(n3)sc3cc(OCCN5CCOCC5)ccc34)cc2)no1	yes (1)

Q. Just curious, what result did COC(=O)Nc1nc2ccc(C(=O)c3ccc(F)cc3)cc2[nH]1 get here?
A. yes (1)

Q. Thanks! And O=C(NC1CCNCC1)c1[nH]ncc1NC(=O)c1c(Cl)cccc1Cl ?
A. yes (1)

Q. Thanks! And COc1cccc2nc(-c3cccs3)nc(NN3C(=O)C=C(C)C3=O)c12 ?
A. yes (1)

Q. Thanks! And COc1cc2nccc(Oc3ccc(NC(=O)C4(C(=O)Nc5ccc(F)cc5)CC4)cc3)c2cc1OC ?
A. yes (1)

Q. Thanks! And COC(=O)[C@]12CCC(C)(C)C[C@@H]1[C@@H]1C(=O)C=C3[C@@]4(C)C=C(C#N)C(=O)C(C)(C)[C@@H]4CC[C@@]3(C)[C@]1(C)CC2 ?
A. yes (1)

====

Test Summary: qHTS Screen of the MIPE 4.0 Collection Against Ewings Sarcoma (TC71) (AID 1259253); also: nearly all actives have a fitted effect of over 40% in size; also: potency is read from the fitted curve at half-maximal effect
Run Conditions: TC71 Ewing sarcoma viability, CellTiter-Glo, 48 h; series mostly up to 45.8 µM
Records with an inconclusive call do not appear. Activity calls are given as the source filed them. The call rests on the fitted dose curve; in most records, active means well fitted inhibition curve with a large enough effect; inconclusive means small, poorly fitted or top-dose-only effect; inactive means no such curve, though single readings can be large or run the other way.
Readout Type: Potency

C=CCn1c(=O)c2cnc(Nc3ccc(N4CCN(C)CC4)cc3)nc2n1-c1cccc(C(C)(C)O)n1	0.332 µM (active)
CN1CC[C@@H](c2c(O)cc(O)c3c(=O)cc(-c4ccccc4Cl)oc23)[C@@H](O)C1	0.0743 µM (active)
COc1ccc(CC2SC(=O)NC2=O)cc1C(=O)NCc1ccc(C(F)(F)F)cc1 (centres undefined)	inactive
Cc1c(NC(=O)OC[C@@H]2COCCN2)cn2ncnc(Nc3ccc4c(cnn4Cc4cccc(F)c4)c3)c12	1.05 µM (active)
NC(=O)c1c(OCc2c(F)cc(Br)cc2F)nsc1NC(=O)NCCCCN1CCCC1	18.7 µM (active)

Q. Tell me the measured Potency of CC[C@@]1(O)C(=O)OCc2c1cc1n(c2=O)Cc2cc3cc(O)ccc3nc2-1 , please.
A. 0.0118 µM (active)

Q. Thanks! And Cc1cc(Nc2cc(CN3CCOCC3)c3nc(C)c(Cc4ccc(Cl)cc4F)n3n2)n[nH]1 ?
A. 14.8 µM (active)

Q. Thanks! And C1=CCOCc2cc(ccc2OCCN2CCCC2)Nc2nccc(n2)-c2cccc(c2)OCC1 ?
A. 4.69 µM (active)

Q. Thanks! And O=C(O)CCCc1c[nH]c2ccccc12 ?
A. inactive

====

Target Or System: Nicotinamide N-methyltransferase (Homo sapiens)
Test Summary: Confirmatory Screen for Target Class Profiling of Small Molecule Inhibitors of Methyltransferases (AID 1745852)
Run Conditions: MTase-Glo luminescence, SAH detection, recombinant enzyme; measured here: NNMT max response; stronger effect = lower value
So basically, if activity comes in under -40% it's YES, and if it's -40% or more it's NO.

Reference set, count: 8
Cc1cc(Nc2nc(N[C@@H](C)c3ccc(F)cc3)c(C#N)cc2F)n[nH]1	NO
CCn1nnc2c(N3CCOCC3)nc(-c3ccc(NC(=O)Nc4ccc(C(=O)N5CCN(C)CC5)cc4)cc3)nc21	YES
CNC(=O)CN1CCC(Oc2cc3c(Nc4cccc(Cl)c4F)ncnc3cc2OC)CC1	NO
C=CC(=O)Nc1cccc(Oc2nc(Nc3ccc(N4CCN(C)CC4)cc3)ncc2Cl)c1	YES
Cc1c(CN2CCN(S(C)(=O)=O)CC2)sc2c(N3CCOCC3)nc(-c3cnc(N)nc3)nc12	NO
Cn1c(CNc2ccc(C(=N)N)cc2)nc2cc(C(=O)N(CCC(=O)O)c3ccccn3)ccc21	NO
Cc1c(C)n(Cc2ccc(-c3ccccc3C(=O)O)cc2)c2ccc(C(=O)N[C@@H](C)c3ccc([N+](=O)[O-])cc3)cc12	NO
NC1(Cc2ccc(Cl)cc2)CCN(c2ncnc3[nH]ccc23)CC1	NO

Q. Item CC1(C)CC(=O)c2c(C(F)(F)F)nn(-c3ccc(C(N)=O)c(NC4CCC(OC(=O)CN)CC4)c3)c2C1 (centres undefined) : activity beneath -40%, strictly?
A. YES

====

Test Summary: qHTS to identify inhibitors of the type 1 interferon - major histocompatibility complex class I in skeletal muscle: primary screen against the NCATS Mechanism Interrogation Plate v5.0 (MIPE) Libary (AID 1347411); also: potency is read from the fitted curve at half-maximal effect; nearly all actives have a fitted effect of over 65% in size
Run Conditions: iHSKM cells + IFN-b, HiBiT-tagged MHC-I luminescence, 24 h; series mostly up to 45.8 µM
Results filed as inconclusive are left out. Active and inactive are the calls of the source. The call rests on the fitted dose curve; in most records, active means well fitted inhibition curve with a large enough effect; inconclusive means small, poorly fitted or top-dose-only effect; inactive means no such curve, though single readings can be large or run the other way.
Form entry, call: pick from Y = active, N = inactive

c1cc(-c2cnn3cc(-c4ccc(OCCN5CCCCC5)cc4)cnc23)ccn1	Y

Q. Just curious, what result did Nc1cccc(-c2cc3c(Oc4cccc(O)c4)ncnc3[nH]2)c1 get here?
A. Y

====

Test Summary: Quantitative High-Throughput drug screen in 47 multiple myeloma cell lines against the NCATS MIPE library collection: Karpas25_ECACC cell viability assay (AID 1918968; also: nearly all actives have a fitted effect of over 35% in size)
Run Conditions: Karpas25 myeloma viability, CellTiter-Glo ATP, 48 h; series mostly up to 45.8 µM
From the text: PI: Beverly A. Mock Ph.D. Laboratory of Cancer Biology and Genetics, Center for Cancer Research, National Cancer Institute, National Institute of Health, Bethesda, Maryland […] 5; Detector; 425V; Luminescence; Viewlux PerkinElmer. […] 1. […] Briefly, the corresponding myeloma cell lines were screened in 1,536-well plates with 500 cells, 5-uL per well for inhibition of cell viability (assessed by measuring ATP levels with CellTiterGlo). […]
Inconclusive results are not listed. The source made the active and inactive calls. Calls come from the whole dose curve; as a rule, active = well fitted cell-killing curve with a large enough effect; inconclusive = small, poorly fitted or top-dose-only effect, or effect the other way; inactive = no such curve, though single readings can be large or run the other way.
Form entry, call: pick from true for active, false for inactive

Reference set, count: 4
Cc1ccc(C(N)=O)cc1Nc1nccc(-c2cn(C(C)C)c3cnccc23)n1	true
C[C@@H](Oc1cc(-n2cnc3ccc(CN4CCN(C)CC4)cc32)sc1C(N)=O)c1ccccc1C(F)(F)F	true
CC(=O)OCCN1C(=O)c2c(C)nc3ccc(S(=O)(=O)N4CCOCC4)cc3c2C1=O	false
CC[C@H]1CN2CCc3cc(OC)c(OC)cc3[C@H]2C[C@@H]1C[C@@H]1NCCc2cc(OC)c(OC)cc21	true

--- query ---
Q. Just curious, what result did O=C(NCCCNc1nc(Nc2cccc(NC(=O)N3CCCC3)c2)ncc1I)c1cccs1 get here?
A. true
